test system: SF-539 CNS; test: NCI tumour cell line growth inhibition, 48 h
quantity-measured: TGI

The cases that follow already have their TGI on record.
| compound | system | TGI |
| --- | --- | --- |
| O=C(c1ccccc1)N(CCCCNC(=O)C(F)(F)F)CCCNC(=O)C(F)(F)F | SF-539 CNS | > 100 µM |
| CC(=O)OCC1=CC2OC(=O)C3=COC(OC4OC(CO)C(O)C(O)C4O)C1C32 (configuration not stated) | SF-539 CNS | > 100 µM |
| CN(/N=C/c1ccccc1O)c1ccc2ccccc2n1 | SF-539 CNS | 37.1 µM |
| CNC(=O)N1CN(c2ccccc2)C2(CCN(Cc3ccccc3)CC2)C1=O | SF-539 CNS | > 100 µM |
| Cn1ccc(=NS(=O)(=O)c2ccccc2)cc1 | SF-539 CNS | > 100 µM |

Please report TGI for every entry that follows.
1. CCN(CCO)CCCC(C)Nc1ccnc2cc(Cl)ccc12 (configuration not stated)
2. Nc1ccn(CCOC(c2ccccc2)P(=O)(O)O)c(=O)n1 (configuration not stated)
3. NNC(=O)CC(=O)Nc1ccc(S(=O)(=O)c2ccc(NC(=O)CC(=O)NN)cc2)cc1

Result:
["> 100 µM", "> 100 µM", "> 100 µM"]

Record TGI per entry; entries follow.
1. C1=CC=C2NCCc3cccc(c3)CCNC3=CC=CC=CC3=NCCCCCCN=C2C=C1
2. O=C(Nc1cccc(C(F)(F)F)c1)c1ccc(NC2=C(Cl)C(=O)N(Cc3ccccc3)C2=O)cc1
3. Cc1cc(C#N)c(Nc2ccc(F)cc2[N+](=O)[O-])s1
4. COc1ccc(-c2oc3c(OC)c(OC)c(OC)c(O)c3c(=O)c2OC)cc1O
5. CN=C1CN=C(OP(=O)(N2CCOCC2)N2CCOCC2)c2cc(Cl)ccc2N1

Result:
23.5 µM
34.1 µM
> 100 µM
0.101 µM
> 100 µM

Hey, quick one: what's TGI for each of these?
1. O=S1(=O)c2ccccc2N2C(c3ccccc3)=NOC2(c2ccccc2)CC1c1ccc(Br)cc1 (configuration not stated)
2. O=C(c1ccc2ccccc2c1)c1c(C(F)(F)F)n([O-])c2cc(C(F)(F)F)ccc2[n+]1=O
3. CC1(C)N=c2cc3c(cc2N1c1ccc(Cl)cc1)=Nc1ccccc1N3c1ccc(Cl)cc1
4. N#CC(C(=O)CCC(=O)Nc1cccc(C(F)(F)F)c1)c1ccccc1 (configuration not stated)
5. Cc1cccc(N=Cc2ccc(N(CCC#N)S(=O)(=O)c3ccccc3)cc2C)c1

Result:
> 100 µM
3.23 µM
> 100 µM
> 100 µM
> 100 µM
